Below, each of the binders is paired with its reported crosslinking efficiency value.
- TESTED_ON: T1, PSMA (commercial, Sino Bio cat #15877-H07H) (UniProt Q04609 44-750)
- T1 construct: also called receptor
- ASSAY_NOTES: SDS-PAGE, 37C, ~8:1 sdAb:PSMA

Here is how some binders turned out for crosslinking efficiency.
C2-58FSY (VHH, not fully specified; FSY at 58, plus C-terminal His6) VHH: EVQLVESGGGLVQPGGSLTLSCAASRFMISEYSMHWVRQAPGKGLEWVSTINPAGTTXYAESVKGRFTISRDNAKNTLYLQMNSLKPEDTAVYYCDGYGYRGQGTQVTVSS: > 50%
C2-53FSY (VHH, not fully specified; FSY at 53, plus C-terminal His6) VHH: EVQLVESGGGLVQPGGSLTLSCAASRFMISEYSMHWVRQAPGKGLEWVSTINXAGTTDYAESVKGRFTISRDNAKNTLYLQMNSLKPEDTAVYYCDGYGYRGQGTQVTVSS: > 50%
C2-50FSY (VHH, not fully specified; FSY at 50, plus C-terminal His6) VHH: EVQLVESGGGLVQPGGSLTLSCAASRFMISEYSMHWVRQAPGKGLEWVSXINPAGTTDYAESVKGRFTISRDNAKNTLYLQMNSLKPEDTAVYYCDGYGYRGQGTQVTVSS: > 50%
C2-100FSY (VHH, not fully specified; FSY at 100, plus C-terminal His6) VHH: EVQLVESGGGLVQPGGSLTLSCAASRFMISEYSMHWVRQAPGKGLEWVSTINPAGTTDYAESVKGRFTISRDNAKNTLYLQMNSLKPEDTAVYYCDGYGXRGQGTQVTVSS: < 50%

Ask: Please report the recorded crosslinking efficiency for C2-56FSY (VHH, not fully specified; FSY at 56, plus C-terminal His6) VHH: EVQLVESGGGLVQPGGSLTLSCAASRFMISEYSMHWVRQAPGKGLEWVSTINPAGXTDYAESVKGRFTISRDNAKNTLYLQMNSLKPEDTAVYYCDGYGYRGQGTQVTVSS .
Result: < 50%
